Just for reference, PubChem BioAssay AID1963875 is where these values come from.

- System: KRAS-mutant PDC complex spheroid viability
- PROTOCOL_SUMMARY: Anticancer human tumor 186277-243-T-J2-PDC patient-derived colon adenocarcinoma cell line growth inhibition [KRAS2]
- COND: second compound 1 µM; first compound 0.01 µM; stronger effect = lower value
RECORDED_METRIC: viability, T/C (%)
Lab book: enter the figure in %, no units written.

| MOLECULE | UNIT_OF_MEASUREMENT | viability, T/C |
| --- | --- | --- |
| CC(=O)OC12COC1CC(O)C1(C)C(=O)C(O)C3=C(C)C(OC(=O)C(O)C(NC(=O)OC(C)(C)C)c4ccccc4)CC(O)(C(OC(=O)c4ccccc4)C21)C3(C)C (stereo not given) + CNCc1ccccc1-c1csc(C(C)Nc2nc(C)nc3cc(OC)c(OC)cc23)c1 | % | 4.69 |

Given the molecule Cn1ncnc1[C@H]1c2n[nH]c(=O)c3cc(F)cc(c23)N[C@@H]1c1ccc(F)cc1 + CC1OCC2(CCN(c3cnc(Sc4ccnc(N)c4Cl)c(N)n3)CC2)C1N , what is its reported viability, T/C?
71.4

Given the molecule CC(C)n1nc(-c2ccc3oc(N)nc3c2)c2c(N)ncnc21 + CNCc1ccccc1-c1csc(C(C)Nc2nc(C)nc3cc(OC)c(OC)cc23)c1 , what is its reported viability, T/C?
37.7

Given the molecule CC(C)n1nc(-c2ccc3oc(N)nc3c2)c2c(N)ncnc21 + C=CC(=O)N1CCN(c2nc(=O)n(-c3c(C)ccnc3C(C)C)c3nc(-c4c(O)cccc4F)c(F)cc23)C(C)C1 , what is its reported viability, T/C?
48.9

Given the molecule Cn1ncnc1[C@H]1c2n[nH]c(=O)c3cc(F)cc(c23)N[C@@H]1c1ccc(F)cc1 + COc1cc2nc(C)nc(NC(C)c3cc(N)cc(C(F)(F)F)c3)c2cc1OC1CCOC1 , what is its reported viability, T/C?
99.2

---

- Tested on: KRAS-mutant PDC complex spheroid viability
- PROTOCOL_SUMMARY: Anticancer human tumor 186277-243-T-J2-PDC cell line growth inhibition [KRAS2]; active = viability on the fitted dose curve at most 10% of control; inactive = the rest
- COND: second compound 10 µM; first compound 0.0316 µM
Select the matching outcome among YES (active), NO (inactive)

Take a look at these entries with their results.
| COMPOUND | CATEGORY |
| --- | --- |
| COC(=O)c1ccc2c(C(=Nc3ccc(N(C)C(=O)CN4CCN(C)CC4)cc3)c3ccccc3)c(O)[nH]c2c1 + C=CC(=O)N1CCN(c2nc(=O)n(-c3c(C)ccnc3C(C)C)c3nc(-c4c(O)cccc4F)c(F)cc23)C(C)C1 | NO |
| COC(=O)c1ccc2c(C(=Nc3ccc(N(C)C(=O)CN4CCN(C)CC4)cc3)c3ccccc3)c(O)[nH]c2c1 + CC1OCC2(CCN(c3cnc(Sc4ccnc(N)c4Cl)c(N)n3)CC2)C1N | NO |
| CN(C)C/C=C/C(=O)Nc1cc2c(Nc3ccc(F)c(Cl)c3)ncnc2cc1O[C@H]1CCOC1 + C=CC(=O)N1CCN(c2nc(=O)n(-c3c(C)ccnc3C(C)C)c3nc(-c4c(O)cccc4F)c(F)cc23)C(C)C1 | NO |
| CN(C)C/C=C/C(=O)Nc1cc2c(Nc3ccc(F)c(Cl)c3)ncnc2cc1O[C@H]1CCOC1 + CNCc1ccccc1-c1csc(C(C)Nc2nc(C)nc3cc(OC)c(OC)cc23)c1 | YES |
| O=C(c1cc(Cc2n[nH]c(=O)c3ccccc23)ccc1F)N1CCN(C(=O)C2CC2)CC1 + CNCc1ccccc1-c1csc(C(C)Nc2nc(C)nc3cc(OC)c(OC)cc23)c1 | YES |

Could you kindly confirm the outcome this assay logged for CC(C)n1nc(-c2ccc3oc(N)nc3c2)c2c(N)ncnc21 + C=CC(=O)N1CCN(c2nc(=O)n(-c3c(C)ccnc3C(C)C)c3nc(-c4c(O)cccc4F)c(F)cc23)C(C)C1 ?
NO

Could you kindly confirm the outcome this assay logged for CCNC(=O)CC1N=C(c2ccc(Cl)cc2)c2cc(OC)ccc2-n2c(C)nnc21 (stereo not drawn) + CNCc1ccccc1-c1csc(C(C)Nc2nc(C)nc3cc(OC)c(OC)cc23)c1 ?
YES

Could you kindly confirm the outcome this assay logged for CC(C)NCC(C(=O)N1CCN(c2ncnc3c2C(C)CC3O)CC1)c1ccc(Cl)cc1 (stereo not drawn) + C=CC(=O)N1CCN(c2nc(=O)n(-c3c(C)ccnc3C(C)C)c3nc(-c4c(O)cccc4F)c(F)cc23)C(C)C1 ?
NO

---

- System: KRAS-mutant PDC complex spheroid viability
- PROTOCOL_SUMMARY: Anticancer human tumor 186277-243-T-J2-PDC cell line growth inhibition [KRAS2]
- COND: curve of first compound; second compound 0.1 µM
RECORDED_METRIC: IC50

Below, 2 compounds whose answers are already recorded.
| COMPOUND | IC50 |
| --- | --- |
| Cn1ncnc1[C@H]1c2n[nH]c(=O)c3cc(F)cc(c23)N[C@@H]1c1ccc(F)cc1 + CNCc1ccccc1-c1csc(C(C)Nc2nc(C)nc3cc(OC)c(OC)cc23)c1 | > 100 nM |
| CC1OCC2(CCN(c3cnc(Sc4ccnc(N)c4Cl)c(N)n3)CC2)C1N (stereo not drawn) + COc1cc2nc(C)nc(NC(C)c3cc(N)cc(C(F)(F)F)c3)c2cc1OC1CCOC1 | > 10000 nM |

Moving on to another compound below.
Request: IC50, test system KRAS-mutant PDC complex spheroid viability, entry Cn1ncnc1[C@H]1c2n[nH]c(=O)c3cc(F)cc(c23)N[C@@H]1c1ccc(F)cc1 + C=CC(=O)N1CCN(c2nc(=O)n(-c3c(C)ccnc3C(C)C)c3nc(-c4c(O)cccc4F)c(F)cc23)C(C)C1
> 100 nM

---

- Tested on: KRAS-mutant PDC complex spheroid viability
- PROTOCOL_SUMMARY: Anticancer human tumor 186277-243-T-J2-PDC cell line growth inhibition [KRAS2]; active means viability on the fitted dose curve at most 10% of control; inactive means the rest
- COND: second compound 1 µM; first compound 0.01 µM
Select the matching outcome among y for active, n for inactive

Take a look at these entries with their results.
| MOLECULE | SUBJECT_OF_TEST | CATEGORY |
| --- | --- | --- |
| CCN1CCN(Cc2ccc(Nc3ncc(F)c(-c4cc(F)c5nc(C)n(C(C)C)c5c4)n3)nc2)CC1 + COc1cc2nc(C)nc(NC(C)c3cc(N)cc(C(F)(F)F)c3)c2cc1OC1CCOC1 | KRAS-mutant PDC complex spheroid viability | n |
| CN(C)C/C=C/C(=O)Nc1cc2c(Nc3ccc(F)c(Cl)c3)ncnc2cc1O[C@H]1CCOC1 + C=CC(=O)N1CCN(c2nc(=O)n(-c3c(C)ccnc3C(C)C)c3nc(-c4c(O)cccc4F)c(F)cc23)C(C)C1 | KRAS-mutant PDC complex spheroid viability | n |

Could you kindly confirm the outcome this assay logged for CC(C)n1nc(-c2ccc3oc(N)nc3c2)c2c(N)ncnc21 + C=CC(=O)N1CCN(c2nc(OCC3CCCN3C)nc3c2CCN(c2cccc4cccc(C)c24)C3)CC1CC#N ?
n

Could you kindly confirm the outcome this assay logged for CC(C)n1nc(-c2ccc3oc(N)nc3c2)c2c(N)ncnc21 + COc1cc2nc(C)nc(NC(C)c3cc(N)cc(C(F)(F)F)c3)c2cc1OC1CCOC1 ?
n

Could you kindly confirm the outcome this assay logged for CC1COCCN1c1cc(-c2ccnn2C)c2ccnc(-c3ccn[nH]3)c2n1 (stereo unspecified) + CNCc1ccccc1-c1csc(C(C)Nc2nc(C)nc3cc(OC)c(OC)cc23)c1 ?
n

Could you kindly confirm the outcome this assay logged for CC1COCCN1c1cc(-c2ccnn2C)c2ccnc(-c3ccn[nH]3)c2n1 (stereo unspecified) + C=CC(=O)N1CCN(c2nc(OCC3CCCN3C)nc3c2CCN(c2cccc4cccc(C)c24)C3)CC1CC#N ?
n

Could you kindly confirm the outcome this assay logged for CC1COCCN1c1cc(-c2ccnn2C)c2ccnc(-c3ccn[nH]3)c2n1 (stereo unspecified) + CC1OCC2(CCN(c3cnc(Sc4ccnc(N)c4Cl)c(N)n3)CC2)C1N ?
n

Could you kindly confirm the outcome this assay logged for CCN1CCN(Cc2ccc(Nc3ncc(F)c(-c4cc(F)c5nc(C)n(C(C)C)c5c4)n3)nc2)CC1 + CC1OCC2(CCN(c3cnc(Sc4ccnc(N)c4Cl)c(N)n3)CC2)C1N ?
n

Could you kindly confirm the outcome this assay logged for CC(=O)OC12COC1CC(O)C1(C)C(=O)C(O)C3=C(C)C(OC(=O)C(O)C(NC(=O)OC(C)(C)C)c4ccccc4)CC(O)(C(OC(=O)c4ccccc4)C21)C3(C)C (stereo unspecified) + C=CC(=O)N1CCN(c2nc(=O)n(-c3c(C)ccnc3C(C)C)c3nc(-c4c(O)cccc4F)c(F)cc23)C(C)C1 ?
y

Could you kindly confirm the outcome this assay logged for CC(=O)OC12COC1CC(O)C1(C)C(=O)C(O)C3=C(C)C(OC(=O)C(O)C(NC(=O)OC(C)(C)C)c4ccccc4)CC(O)(C(OC(=O)c4ccccc4)C21)C3(C)C (stereo unspecified) + C=CC(=O)N1CCN(c2nc(OCC3CCCN3C)nc3c2CCN(c2cccc4cccc(C)c24)C3)CC1CC#N ?
y

Could you kindly confirm the outcome this assay logged for Cn1ncnc1[C@H]1c2n[nH]c(=O)c3cc(F)cc(c23)N[C@@H]1c1ccc(F)cc1 + C=CC(=O)N1CCN(c2nc(OCC3CCCN3C)nc3c2CCN(c2cccc4cccc(C)c24)C3)CC1CC#N ?
n

Could you kindly confirm the outcome this assay logged for CC1COCCN1c1cc(-c2ccnn2C)c2ccnc(-c3ccn[nH]3)c2n1 (stereo unspecified) + COc1cc2nc(C)nc(NC(C)c3cc(N)cc(C(F)(F)F)c3)c2cc1OC1CCOC1 ?
n

Could you kindly confirm the outcome this assay logged for CN(C)C/C=C/C(=O)Nc1cc2c(Nc3ccc(F)c(Cl)c3)ncnc2cc1O[C@H]1CCOC1 + C=CC(=O)N1CCN(c2nc(OCC3CCCN3C)nc3c2CCN(c2cccc4cccc(C)c24)C3)CC1CC#N ?
n

Could you kindly confirm the outcome this assay logged for CC(=O)Nc1cccc(-n2c(=O)n(C3CC3)c(=O)c3c(Nc4ccc(I)cc4F)n(C)c(=O)c(C)c32)c1 + CC1OCC2(CCN(c3cnc(Sc4ccnc(N)c4Cl)c(N)n3)CC2)C1N ?
y

Could you kindly confirm the outcome this assay logged for CC(C)n1nc(-c2ccc3oc(N)nc3c2)c2c(N)ncnc21 + CC1OCC2(CCN(c3cnc(Sc4ccnc(N)c4Cl)c(N)n3)CC2)C1N ?
n

Could you kindly confirm the outcome this assay logged for CC(=O)OC12COC1CC(O)C1(C)C(=O)C(O)C3=C(C)C(OC(=O)C(O)C(NC(=O)OC(C)(C)C)c4ccccc4)CC(O)(C(OC(=O)c4ccccc4)C21)C3(C)C (stereo unspecified) + COc1cc2nc(C)nc(NC(C)c3cc(N)cc(C(F)(F)F)c3)c2cc1OC1CCOC1 ?
y
